- test_protocol: Solubility in commonly used solvents for oral administration
- Format: physicochemical
- measurement_context: PEG400, organic solvent or mixture

{"sample_smiles": "O=C(/C=C/c1ccccc1Br)Nc1ccc(S(=O)(=O)N2CCCCC2)cc1", "solubility": "> 20000 µg/mL"}
{"sample_smiles": "O=C(/C=C/c1ccccc1Cl)Nc1ccc(S(=O)(=O)N2CCCCC2)cc1", "solubility": "6940 µg/mL"}

These entries and their values trace back to patent US11040949B2.
